# System: NCI-H358
# procedure.summary: Cell growth assay
# Type: cell-based
# protocol.conditions: Homo sapiens, 72 h; NCI-H358, RAF WT, RAS WT, 3-day; read-out: gIC50
observed.property: IC50

Prompt line: IC50 for CC(C)(C)c1nc(-c2cccc(NS(=O)(=O)c3c(F)cccc3F)c2F)c(-c2ccnc(N)n2)s1 ?
Response line: > 10 µM

====

# Tested on: GDM-1
# procedure.summary: Cell growth assay
# Format: cell-based
# protocol.conditions: Homo sapiens, 72 h; GDM-1, RAF WT, RAS WT, 3-day; read-out: gIC50
observed.property: IC50 (nM)
Record the value in nM, omitting the unit from your answer.

Prompt line: Quick one: IC50 of CC(C)(C)c1nc(-c2cccc(NS(=O)(=O)c3c(F)cccc3F)c2F)c(-c2ccnc(N)n2)s1 ?
Response line: 2000

====

# Tested on: H4
# procedure.summary: Cell growth assay
# Assay type: cell-based
# protocol.conditions: Homo sapiens, 72 h; H4, RAF WT, RAS WT, 3-day; read-out: gIC50
observed.property: IC50 (nM)
Give the value, in units of nM, as a plain number.

Prompt line: Return reported IC50; argument: CC(C)(C)c1nc(-c2cccc(NS(=O)(=O)c3c(F)cccc3F)c2F)c(-c2ccnc(N)n2)s1 [dabrafenib]
Response line: 619

====

# Test system: HMCB
# procedure.summary: Cell growth assay
# Format: cell-based
# protocol.conditions: Homo sapiens, 72 h, RAF WT, RAS WT, 3-day, read-out: gIC50
observed.property: IC50

Prompt line: If you can, please state the reported IC50 value of CC(C)(C)c1nc(-c2cccc(NS(=O)(=O)c3c(F)cccc3F)c2F)c(-c2ccnc(N)n2)s1 [dabrafenib] .
Response line: > 10 µM

====

# Tested on: Calu-6
# procedure.summary: Cell growth assay
# Format: cell-based
# protocol.conditions: Homo sapiens, 72 h; Calu-6, RAF WT, KRAS(Q61K), 3-day; read-out: gIC50
# Experimental: Growth was measured with CellTiter-Glo® (Promega) reagent per the manufacturer’s protocol, using a PerkinElmer EnVision™ reader at t = 0 and 72 h. IC50 values for cell growth inhibition (gIC50) were determined. (PDF) Click here for additional data file.
pIC50: −log10 of the molar value.
observed.property: pIC50

Prompt line: What pIC50 value was documented for this compound, CC(C)(C)c1nc(-c2cccc(NS(=O)(=O)c3c(F)cccc3F)c2F)c(-c2ccnc(N)n2)s1 ?
Response line: < 5.00

====

# System: T-84
# procedure.summary: Cell growth assay
# Format: cell-based
# protocol.conditions: Homo sapiens, T84, 72 h; T-84, RAF WT, KRAS(G13D), 3-day; read-out: gIC50
observed.property: IC50

Prompt line: Any idea what IC50 was measured for CC(C)(C)c1nc(-c2cccc(NS(=O)(=O)c3c(F)cccc3F)c2F)c(-c2ccnc(N)n2)s1 ?
Response line: > 10 µM

====

# Test system: CESS
# procedure.summary: Cell growth assay
# Format: cell-based
# protocol.conditions: Homo sapiens, 72 h, RAF WT, RAS WT, 3-day, read-out: gIC50
observed.property: IC50 (nM)
Only the number, expressed in nM, is required.

Prompt line: Returns the measured IC50 for the input compound. Input: CC(C)(C)c1nc(-c2cccc(NS(=O)(=O)c3c(F)cccc3F)c2F)c(-c2ccnc(N)n2)s1 [dabrafenib]
Response line: 497

====

# Test system: DLD-1
# procedure.summary: Cell growth assay
# Assay type: cell-based
# protocol.conditions: Homo sapiens, 72 h; DLD-1, RAF WT, KRAS(G13D), 3-day; read-out: gIC50
# Protocol: Growth was measured with CellTiter-Glo® (Promega) reagent per the manufacturer’s protocol, using a PerkinElmer EnVision™ reader at t = 0 and 72 h. IC50 values for cell growth inhibition (gIC50) were determined. (PDF) Click here for additional data file.
observed.property: IC50

Prompt line: Recorded IC50 for CC(C)(C)c1nc(-c2cccc(NS(=O)(=O)c3c(F)cccc3F)c2F)c(-c2ccnc(N)n2)s1 , please?
Response line: > 10 µM

====

# Test system: BFTC-905
# procedure.summary: Cell growth assay
# Format: cell-based
# protocol.conditions: Homo sapiens, 72 h; BFTC-905, RAF WT, NRAS(Q61L), 3-day; read-out: gIC50
observed.property: IC50

Prompt line: Looking for the measured IC50 of CC(C)(C)c1nc(-c2cccc(NS(=O)(=O)c3c(F)cccc3F)c2F)c(-c2ccnc(N)n2)s1 , can you help?
Response line: > 10 µM

====

# system: LIMK1 (h) (Homo sapiens)
# Construct: purchased Millipore
# Sequence (P53667 whole entry): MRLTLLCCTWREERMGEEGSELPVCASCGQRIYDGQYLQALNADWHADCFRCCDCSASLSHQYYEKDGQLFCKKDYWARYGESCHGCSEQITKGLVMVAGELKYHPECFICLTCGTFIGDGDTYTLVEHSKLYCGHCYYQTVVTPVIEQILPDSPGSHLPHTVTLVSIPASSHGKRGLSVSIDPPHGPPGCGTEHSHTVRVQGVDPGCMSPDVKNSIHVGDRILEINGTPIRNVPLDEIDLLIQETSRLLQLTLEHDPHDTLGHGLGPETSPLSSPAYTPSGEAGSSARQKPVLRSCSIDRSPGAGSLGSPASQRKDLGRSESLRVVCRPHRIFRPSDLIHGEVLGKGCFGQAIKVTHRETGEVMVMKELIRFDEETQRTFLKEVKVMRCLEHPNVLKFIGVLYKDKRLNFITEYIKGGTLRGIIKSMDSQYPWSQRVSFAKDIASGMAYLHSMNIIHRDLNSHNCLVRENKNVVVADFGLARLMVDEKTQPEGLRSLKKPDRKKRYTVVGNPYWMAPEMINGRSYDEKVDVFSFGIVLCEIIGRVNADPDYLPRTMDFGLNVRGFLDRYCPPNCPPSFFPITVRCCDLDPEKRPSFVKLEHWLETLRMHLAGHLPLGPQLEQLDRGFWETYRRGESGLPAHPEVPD
# procedure.summary: Kinase panel (Millipore) enzyme activity
# Format: biochemical
observed.property: IC50 (nM)
Lab book: enter the figure in nM, no units written.

Prompt line: Param readout = IC50; param system = LIMK1 (h) (Homo sapiens); param query = CC(C)(C)c1nc(-c2cccc(NS(=O)(=O)c3c(F)cccc3F)c2F)c(-c2ccnc(N)n2)s1 ; response: value
Response line: 15

====

# Test system: NCI-H460
# procedure.summary: Cell growth assay
# Assay type: cell-based
# protocol.conditions: Homo sapiens, 72 h; NCI-H460, RAF WT, KRAS(Q61H), 3-day; read-out: gIC50
# Method: Growth was measured with CellTiter-Glo® (Promega) reagent per the manufacturer’s protocol, using a PerkinElmer EnVision™ reader at t = 0 and 72 h. IC50 values for cell growth inhibition (gIC50) were determined. (PDF) Click here for additional data file.
observed.property: IC50

Prompt line: Could you share which IC50 value was measured for CC(C)(C)c1nc(-c2cccc(NS(=O)(=O)c3c(F)cccc3F)c2F)c(-c2ccnc(N)n2)s1 [dabrafenib] ?
Response line: > 10 µM

====

# Tested on: 195 tumor cell lines
# procedure.summary: Cell growth assay, summary over 195 tumor cell lines
# Assay type: cell-based
# protocol.conditions: Homo sapiens, A673, 3 of the BRAF^V600E cell lines (GCT, RKO, A673); read-out: gIC50
observed.property: IC50

Prompt line: Find the recorded IC50 belonging to CC(C)(C)c1nc(-c2cccc(NS(=O)(=O)c3c(F)cccc3F)c2F)c(-c2ccnc(N)n2)s1 [dabrafenib] and report it.
Response line: > 2000 nM

====

# Tested on: FaDu
# procedure.summary: Cell growth assay
# Format: cell-based
# protocol.conditions: Homo sapiens, 72 h, RAF WT, RAS WT, 3-day, read-out: gIC50
observed.property: IC50

Prompt line: Report IC50 for CC(C)(C)c1nc(-c2cccc(NS(=O)(=O)c3c(F)cccc3F)c2F)c(-c2ccnc(N)n2)s1 please.
Response line: > 10 µM

====

# Tested on: UMUC-3
# procedure.summary: Cell growth assay
# Assay type: cell-based
# protocol.conditions: Homo sapiens, UMUC3, 72 h; UMUC-3, RAF WT, KRAS(G12C), 3-day; read-out: gIC50
observed.property: IC50

Prompt line: Request: IC50, test system UMUC-3, entry CC(C)(C)c1nc(-c2cccc(NS(=O)(=O)c3c(F)cccc3F)c2F)c(-c2ccnc(N)n2)s1
Response line: > 10 µM
